SYSTEM_TESTED: Kras and SOS1 (biotin-tagged human Kras loaded with GDP, His-tagged human SOS1) (Homo sapiens, UniProt P01116, G12D)
Construct: made in house; host or cells: E. coli (stated for Kras only)
Sequence (P01116 1-188 isoform P01116-2 G12D): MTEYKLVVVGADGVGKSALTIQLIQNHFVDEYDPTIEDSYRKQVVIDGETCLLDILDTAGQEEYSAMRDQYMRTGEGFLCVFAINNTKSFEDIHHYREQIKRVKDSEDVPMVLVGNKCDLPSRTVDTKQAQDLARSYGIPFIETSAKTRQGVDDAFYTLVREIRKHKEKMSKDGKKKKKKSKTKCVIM
ASSAY_COMMENT: Protein-protein interaction inhibition between Kras and SOS1 (KrasGl2D-SOS PPI) using AlphaScreen
Format: binding
EXPERIMENTAL_PARAMETERS: AlphaScreen; biotin-tagged human Kras loaded with GDP, His-tagged human SOS1; read-out: KRAS G12D-SOS PPI IC50
Protocol: Protein-Protein Interaction Inhibition Between Kras and SOS1 (KrasGl2D-SOS PPI) Using AlphaScreen Protein-protein interaction inhibition (PPI) between Kras and SOS1 was measured by energy transfer from nickel-conjugated donor beads to streptavidin-conjugated acceptor beads using biotin-tagged human Kras expressed in E. coli and loaded with GDP after purification and His-tagged human SOS1 enzyme. […]
Positions of bridges follow the written chain, without caps; N, C: chain ends. Non-standard residues stand in square brackets, D forms with d. Residues, ends and D or L forms follow the SMILES beside them. *: point of attachment. hPhe(3-Cl-4-CF3) = N[C@@H](CCc1ccc(C(F)(F)F)c(Cl)c1)C(=O)O; NMePhe(4-CF3) = CN[C@@H](Cc1ccc(C(F)(F)F)cc1)C(=O)O; NMePhe(4-Cl) = CN[C@@H](Cc1ccc(Cl)cc1)C(=O)O; NMePhe(3-F) = CN[C@@H](Cc1cccc(F)c1)C(=O)O; NMePhe(4-F) = CN[C@@H](Cc1ccc(F)cc1)C(=O)O; NMeAla(cPent) = CN[C@@H](CC1CCCC1)C(=O)O; NMeGly(cPent) = CN[C@H](C(=O)O)C1CCCC1; Phe(3-I) = N[C@@H](Cc1cccc(I)c1)C(=O)O; NMeCha = CN[C@@H](CC1CCCCC1)C(=O)O; NMeChg = CN[C@H](C(=O)O)C1CCCCC1; NMeF = CN[C@@H](Cc1ccccc1)C(=O)O; Gly(cBu) = N[C@H](C(=O)O)C1CCC1; NMeD = CN[C@@H](CC(=O)O)C(=O)O; NMeL = CN[C@@H](CC(C)C)C(=O)O; NMeV = CN[C@H](C(=O)O)C(C)C; d(β3hA) = C[C@@H](N)CC(=O)O; Morpholide = C1CN(*)CCO1; NMeA = CN[C@@H](C)C(=O)O; NMeAib = CNC(C)(C)C(=O)O; Nle = CCCC[C@H](N)C(=O)O; Piperidide = C1CCN(*)CC1; Ac5c = NC1(C(=O)O)CCCC1; Aze = O=C(O)[C@@H]1CCN1; βAla = NCCC(=O)O; Sar = CNCC(=O)O
IC50: recorded values
OUTCOME_MEASURE: IC50

- CCCC[C@@H]1NC(=O)[C@H](Cc2cccc(I)c2)NC(=O)CN(C)C(=O)[C@H](CC2CCCC2)N(C)C(=O)CN(C)C(=O)CN(C)C(=O)[C@H]([C@@H](C)CC)NC(=O)[C@H](CC(C)C)N(C)C(=O)C[C@@H](C(=O)N2CCCCC2)N(C)C(=O)[C@H](CC(C)C)NC(=O)C(C)(C)N(C)C1=O [Compound 1423] ([NMeL]I[Sar][Sar][NMeAla(cPent)][Sar][Phe(3-I)][Nle][NMeAib]L[NMeD]-Piperidide; lactam N-11): 190 nM
- CC[C@H](C)[C@@H]1NC(=O)[C@H](C)N(C)C(=O)C[C@@H](C)NC(=O)[C@H](C2CCCC2)N(C)C(=O)C2(CCCC2)NC(=O)[C@@H]2CCCN2C(=O)[C@H](CCc2ccc(C(F)(F)F)c(Cl)c2)NC(=O)CN(C)C(=O)[C@H](Cc2ccc(C(F)(F)F)cc2)N(C)C(=O)CN(C)C(=O)CN(C)C1=O [Compound 1523] (cyclo([Ac5c][NMeGly(cPent)][d(β3hA)][NMeA]I[Sar][Sar][NMePhe(4-CF3)][Sar][hPhe(3-Cl-4-CF3)]P)): 0.75 nM
- CCCC[C@@H]1NC(=O)[C@H](Cc2cccc(I)c2)NC(=O)CN(C)C(=O)[C@H](Cc2ccc(Cl)cc2)N(C)C(=O)CN(C)C(=O)CN(C)C(=O)[C@H]([C@@H](C)CC)NC(=O)[C@H](CC(C)C)N(C)C(=O)C[C@@H](C(=O)N2CCCCC2)N(C)C(=O)[C@H](CC(C)C)NC(=O)[C@H](Cc2cccc(F)c2)N(C)C1=O [Compound 483] ([NMeL]I[Sar][Sar][NMePhe(4-Cl)][Sar][Phe(3-I)][Nle][NMePhe(3-F)]L[NMeD]-Piperidide; lactam N-11): 17 nM
- CC[C@H](C)[C@@H]1NC(=O)[C@H](CC(C)C)N(C)C(=O)C[C@@H](C)NC(=O)[C@H](C(C)C)N(C)C(=O)C2(CCCC2)NC(=O)[C@@H]2CCCN2C(=O)[C@H](CCc2ccc(C(F)(F)F)c(Cl)c2)NC(=O)CN(C)C(=O)[C@H](Cc2ccc(F)cc2)N(C)C(=O)CN(C)C(=O)CN(C)C1=O [Compound 1602] (cyclo([Ac5c][NMeV][d(β3hA)][NMeL]I[Sar][Sar][NMePhe(4-F)][Sar][hPhe(3-Cl-4-CF3)]P)): 6.3 nM
- CC[C@H](C)[C@@H]1NC(=O)[C@H](C)N(C)C(=O)C[C@@H](C(=O)N2CCCCC2)N(C)C(=O)[C@H](C(C)C)N(C)C(=O)C2(CCCC2)NC(=O)[C@@H]2CCCN2C(=O)[C@H](CCc2ccc(C(F)(F)F)c(Cl)c2)NC(=O)CN(C)C(=O)[C@H](CC2CCCCC2)N(C)C(=O)[C@@H]2CCN2C(=O)[C@H](CC2CCCCC2)N(C)C1=O [Compound 1580] ([NMeA]I[NMeCha][Aze][NMeCha][Sar][hPhe(3-Cl-4-CF3)]P[Ac5c][NMeV][NMeD]-Piperidide; lactam N-11): 11 nM
- CC(C)C[C@H]1C(=O)N[C@@H](C2CCC2)C(=O)N(C)CC(=O)N(C)CC(=O)N(C)[C@@H](CC2CCCCC2)C(=O)N(C)CC(=O)N[C@@H](CCc2ccc(C(F)(F)F)c(Cl)c2)C(=O)N2CCC[C@H]2C(=O)NC2(CCCC2)C(=O)N(C)[C@@H](C2CCCCC2)C(=O)N(C)[C@H](C(=O)N2CCCCC2)CC(=O)N1C [Compound 411] ([NMeL][Gly(cBu)][Sar][Sar][NMeCha][Sar][hPhe(3-Cl-4-CF3)]P[Ac5c][NMeChg][NMeD]-Piperidide; lactam N-11): 0.62 nM
- CC[C@H](C)[C@@H]1NC(=O)[C@H](CC(C)C)N(C)C(=O)C[C@@H](C(=O)N(C)C)N(C)C(=O)[C@H](C2CCCC2)N(C)C(=O)[C@H](C)NC(=O)[C@@H](C)NC(=O)[C@H](CCc2ccc(C(F)(F)F)c(Cl)c2)NC(=O)CN(C)C(=O)[C@H](CC2CCCCC2)N(C)C(=O)[C@@H]2CCN2C(=O)[C@H](C)N(C)C1=O [Compound 736] ([NMeL]I[NMeA][Aze][NMeCha][Sar][hPhe(3-Cl-4-CF3)][dA]A[NMeGly(cPent)][NMeD]-NMe2; lactam N-11): 37 nM
- CC[C@H](C)[C@@H]1NC(=O)CCNC(=O)[C@H](Cc2ccccc2)N(C)C(=O)[C@H](C2CCCCC2)N(C)C(=O)C2(CCCC2)NC(=O)[C@@H]2CCCN2C(=O)[C@H](CCc2ccc(C(F)(F)F)c(Cl)c2)NC(=O)CN(C)C(=O)[C@H](CC2CCCCC2)N(C)C(=O)CN(C)C(=O)CN(C)C1=O [Compound 1007] (cyclo([Ac5c][NMeChg][NMeF][βAla]I[Sar][Sar][NMeCha][Sar][hPhe(3-Cl-4-CF3)]P)): 13 nM
- CC[C@H](C)[C@@H]1NC(=O)[C@H](CC(C)C)N(C)C(=O)C[C@@H](C(=O)N2CCOCC2)N(C)C(=O)[C@H](C(C)C)N(C)C(=O)C2(CCCC2)NC(=O)[C@@H]2CCCN2C(=O)[C@H](CCc2ccc(C(F)(F)F)c(Cl)c2)NC(=O)CN(C)C(=O)[C@H](CC2CCCCC2)N(C)C(=O)CN(C)C(=O)CN(C)C1=O [Compound 1934] ([NMeL]I[Sar][Sar][NMeCha][Sar][hPhe(3-Cl-4-CF3)]P[Ac5c][NMeV][NMeD]-Morpholide; lactam N-11): 1 nM
